assay: Mean residence time in mouse at 5 mg/kg, po; format: ADME, organism-based; set-up: dose 5 mg/kg, route oral; conditions: in vivo
readoutName: MRT (h)
Your answer is read as h, so omit the unit and give the number.

Lab book: MRT of OC[C@H]1C[C@@H](O)CCN1CCc1ccc(Nc2nc(-c3ccc(C(F)(F)F)cc3)cs2)cc1 noted as 13

====

Record type: IC50 measurement. Applies to: Sphingosine kinase 1 (Homo sapiens, UniProt Q9NYA1)
Your answer is read as nM, so omit the unit and give the number.

Given the compound Cc1ccc(-c2csc(Nc3ccc(CCN4CC[C@H](O)C[C@@H]4CO)cc3)n2)cc1 and test system Sphingosine kinase 1 (Homo sapiens, UniProt Q9NYA1), the measured IC50 is 7

Given the compound CCCCc1csc(Nc2ccc(CCN3CC[C@H](O)C[C@@H]3CO)cc2)n1 and test system Sphingosine kinase 1 (Homo sapiens, UniProt Q9NYA1), the measured IC50 is 70

Given the compound OC[C@@H]1CCCCN1CCc1ccc(Nc2nc(-c3ccc4ccccc4c3)cs2)cc1 and test system Sphingosine kinase 1 (Homo sapiens, UniProt Q9NYA1), the measured IC50 is 1100

Given the compound OC[C@H]1C[C@H](O)CN1CCCc1ccc(Nc2nc(-c3ccc(Cl)c(Cl)c3)cs2)cc1 and test system Sphingosine kinase 1 (Homo sapiens, UniProt Q9NYA1), the measured IC50 is 30

Given the compound OC[C@H]1CCCN1CCc1ccc(Nc2nc(-c3ccc4ccccc4c3)cs2)cc1 and test system Sphingosine kinase 1 (Homo sapiens, UniProt Q9NYA1), the measured IC50 is 580

Given the compound OC[C@H]1CCCCN1CCc1ccc(Nc2nc(-c3cccc(Cl)c3)cs2)cc1 and test system Sphingosine kinase 1 (Homo sapiens, UniProt Q9NYA1), the measured IC50 is 270

====

test: Volume of distribution at steady state in rat at 0.5 mg/kg, iv; assay type: ADME, organism-based; set-up: dose 0.5 mg/kg, route intravenous; conditions: in vivo, read-out: Vdss
Give measured Vd for each item. Keep answers brief.

Lab book: Vd of OC[C@H]1C[C@@H](O)CCN1CCc1ccc(Nc2nc(-c3ccc(C(F)(F)F)cc3)cs2)cc1 noted as 17 L/kg

Lab book: Vd of OC[C@H]1C[C@@H](O)CN1CCc1ccc(Nc2nc(-c3ccc(Cl)c(Cl)c3)cs2)cc1 noted as > 100 L/kg

Lab book: Vd of OC[C@H]1C[C@@H](O)CCN1CCc1ccc(Nc2nc(-c3ccc(Cl)cc3Cl)cs2)cc1 noted as 18 L/kg

Lab book: Vd of OC[C@H]1C[C@@H](O)CN1CCCc1ccc(Nc2nc(-c3ccc(Cl)c(Cl)c3)cs2)cc1 noted as > 100 L/kg

Lab book: Vd of OC[C@H]1C[C@H](O)CN1CCCc1ccc(Nc2nc(-c3ccc(Cl)c(Cl)c3)cs2)cc1 noted as > 100 L/kg

Lab book: Vd of OC[C@H]1C[C@H](O)CN1CCc1ccc(Nc2nc(-c3ccc(Cl)c(Cl)c3)cs2)cc1 noted as > 100 L/kg

====

assay: Fraction unbound in rat plasma by ultra-centrifugation method; type: ADME, cell-free
readoutName: fraction unbound
Give a plain numeric answer without units written out.

Lab book: fraction unbound of OC[C@H]1C[C@@H](O)CCN1CCc1ccc(Nc2nc(-c3ccc(Cl)cc3Cl)cs2)cc1 noted as 0.01

Lab book: fraction unbound of OC[C@H]1C[C@@H](O)CCN1CCc1ccc(Nc2nc(-c3ccc(C(F)(F)F)cc3)cs2)cc1 noted as 0.03
